Test: Selectivity index, ratio of CC50 for human mock-infected MT4 cells to EC50 for HIV1 3B harboring reverse transcriptase F227L/V106A double mutant infected in human MT4 cells
Assay type: toxicity, cell-based
Details: MT4 cells (mock-infected for CC50, HIV-1 infected for EC50)
ENDPOINT NAME: selectivity ratio

The following molecules have reported results that may help.
Which value of selectivity ratio has been reported for Cc1cc(C)c(Oc2nc(NC3CCN(Cc4ccncc4)CC3)nc3ccsc23)c(C)c1 in the records?
42

Which value of selectivity ratio has been reported for Cc1cc(C#N)cc(C)c1Oc1nc(NC2CCN(Cc3ccc(NS(C)(=O)=O)cc3)CC2)nc2ccsc12 in the records?
2120

Which value of selectivity ratio has been reported for Cc1cc(C)c(Oc2nc(NC3CCN(Cc4ccc(S(N)(=O)=O)cc4)CC3)nc3ccsc23)c(C)c1 in the records?
4

Which value of selectivity ratio has been reported for Cc1cc(C)c(Oc2nc(NC3CCN(Cc4cccc(C(N)=O)c4)CC3)nc3ccsc23)c(C)c1 in the records?
9

Which value of selectivity ratio has been reported for Cc1cc(C)c(Oc2nc(NC3CCN(Cc4cccc(F)c4)CC3)nc3ccsc23)c(C)c1 in the records?
8

Which value of selectivity ratio has been reported for Cc1cn([C@H]2C[C@H](N=[N+]=[N-])[C@@H](CO)O2)c(=O)[nH]c1=O [ZIDOVUDINE] in the records?
> 1560

Next:
Which value of selectivity ratio has been reported for Cc1cc(C#N)cc(C)c1Oc1nc(NC2CCN(Cc3cccc(C(N)=O)c3)CC2)nc2ccsc12 in the records?
> 374

Which value of selectivity ratio has been reported for CCOC(=O)c1ccc(CN2CCC(Nc3nc(Oc4c(C)cc(C#N)cc4C)c4sccc4n3)CC2)cc1 in the records?
> 20

Which value of selectivity ratio has been reported for Cc1cc(C)c(Oc2nc(NC3CCN(Cc4ccc([N+](=O)[O-])cc4)CC3)nc3ccsc23)c(C)c1 in the records?
< 1

Which value of selectivity ratio has been reported for Cc1cc(C#N)cc(C)c1Oc1nc(NC2CCN(Cc3ccc(F)cc3)CC2)nc2ccsc12 in the records?
198

Which value of selectivity ratio has been reported for Cc1cc(C)c(Oc2nc(NC3CCN(Cc4cccc(C#N)c4)CC3)nc3ccsc23)c(C)c1 in the records?
44

Which value of selectivity ratio has been reported for Cc1cc(C#N)cc(C)c1Oc1nc(NC2CCN(Cc3cccc(S(N)(=O)=O)c3)CC2)nc2ccsc12 in the records?
> 26700

Which value of selectivity ratio has been reported for CC(=O)NS(=O)(=O)c1ccc(CN2CCC(Nc3nc(Oc4c(C)cc(C#N)cc4C)c4sccc4n3)CC2)cc1 in the records?
> 340

Which value of selectivity ratio has been reported for COC(=O)c1ccc(CN2CCC(Nc3nc(Oc4c(C)cc(C)cc4C)c4sccc4n3)CC2)cc1 in the records?
13

---

# Lookup of reported selectivity ratio keyed by entry
Assay: Selectivity index, ratio of CC50 for human mock-infected MT4 cells to EC50 for HIV1 RES056 harboring reverse transcriptase K103N/Y181C double mutant infected in human MT4 cells
Format: toxicity, cell-based
Details: MT4 cells (mock-infected for CC50, HIV-1 infected for EC50)

The following compounds have reported results that may help.
Which value of selectivity ratio has been reported for Cc1cn([C@H]2C[C@H](N=[N+]=[N-])[C@@H](CO)O2)c(=O)[nH]c1=O [ZIDOVUDINE] in the records?
> 9150

Which value of selectivity ratio has been reported for Cc1cc(C#N)cc(C)c1Oc1nc(NC2CCN(Cc3ccc([N+](=O)[O-])cc3)CC2)nc2ccsc12 in the records?
9

Which value of selectivity ratio has been reported for Cc1cc(C#N)cc(C)c1Oc1nc(NC2CCN(Cc3cccc(C(N)=O)c3)CC2)nc2ccsc12 in the records?
1

Now let's try a different one.
Which value of selectivity ratio has been reported for Cc1cc(C#N)cc(C)c1Oc1nc(NC2CCN(Cc3ccccc3F)CC2)nc2ccsc12 in the records?
8
